# target.of.assay: T1, APBA1_2, Q02410
# T1 sequence (Q02410 742-832, limits assumed, looked up): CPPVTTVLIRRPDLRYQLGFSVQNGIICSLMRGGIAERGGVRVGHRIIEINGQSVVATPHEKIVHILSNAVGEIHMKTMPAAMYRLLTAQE
# assay.comment: holdup assay
# Set-up: key: below the threshold = too weak to quantify, mostly under pKd 3.1 to 4
# measurement.parameters: plain residues with an end cap or a label only (N-terminal biotin on a linker: ahx)
pKd reference
Returns: the value as a bare number; no unit string appended.

INSERT INTO measurements (binder, measured_property, measured_number) VALUES
  ('AKPQPVDSWV [ARVCF, O00192]', 'pKd', 4.62),
  ('SKKNELFSNL [NHERF1, O14745]', 'pKd', 3.48),
  ('VNENQKEYFF [CNTNAP4, Q9C0A0]', 'pKd', 4.47),
  ('KDECVIATEV [DLL1, O00548]', 'pKd', 3.99);

pKd lookup needed for ADENEQVSAV [RAPGEF6, Q8TEU7] , thanks.
3.94
